Molecular target: tetrameric MLL1 complex (Homo sapiens, UniProt Q03164)
Assay: FL-NAH fluorescence polarization saturation binding, tetrameric complex
Conditions: 50 nM FL-NAH, FP after 30 min

compound	assay_system	Kd
Nc1ncnc2c1ncn2[C@@H]1O[C@H](CN(CC[C@H](N)C(=O)O)Cc2cn(CCNC(=O)c3ccc4c(c3)C(=O)OC43c4ccc(O)cc4Oc4cc(O)ccc43)nn2)[C@@H](O)[C@H]1O [FL-NAH]	tetrameric MLL1 complex (Homo sapiens, UniProt Q03164)	1400 nM

Values compiled from paper PMC4689628.
